test: qHTS assay to identify aromatase inhibitors - cell viability counter screen (AID 743084); settings: MCF-7 aro ERE viability, CellTiter-Fluor, 24 h; series mostly up to 70.3 µM;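 also: cells stimulated with testosterone during compound exposure; nearly all actives have a fitted effect of over 55% in size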; also: potency is read from the fitted curve at half-maximal effect
Records with an inconclusive call do not appear. The source made the active and inactive calls. Calls follow the shape of the dose curve; as a rule, active = well fitted cell-killing curve with a large enough effect in the repeat runs; inconclusive = weak or mixed curves, or effect the other way; inactive = no such curve, though single readings can be large or run the other way.
VALUE_KIND: Potency

The cases that follow already have their Potency on record.
COc1nc(C)nc(Cl)c1NC1=NCCN1 | inactive
CC(=O)OCCOCCOCCOC(C)=O | inactive
CC1COC(=O)O1 (stereo unspecified) | inactive
N[C@@H]1CONC1=O | inactive
COc1ccc(Cc2cnc(N)nc2N)cc1OC | inactive
CCCN[C@H]1CCc2nc(N)sc2C1 | inactive
CC(C)(C)NC(=O)[C@@H]1CN(Cc2cccnc2)CCN1C[C@@H](O)C[C@@H](Cc1ccccc1)C(=O)N[C@H]1c2ccccc2C[C@H]1O | 26.6 µM (active)
COC(=O)[C@H]1[C@H]2C[C@@H]3c4[nH]c5cc(OC)ccc5c4CCN3C[C@H]2C[C@@H](OC(=O)c2cc(OC)c(OC)c(OC)c2)[C@@H]1OC | inactive

What value of Potency has been recorded for this entry: `C1COC(NC(C2CC2)C2CC2)=N1`
inactive

I have this molecule here, CNC1(C)C2CCC(C2)C1(C)C (stereo unspecified) , and I need its recorded Potency.
inactive

Can you look up the measured Potency of NC(Cc1ccc(Cl)cc1)C(=O)O (stereo unspecified) for me?
inactive

Would you mind telling me what Potency value was observed for `CC(=O)C1=C(C)[C@@H]2C[C@@]3(C1)[C@H](C)CC[C@H]3C2(C)C` ?
inactive

Recorded Potency for `NC(=Nc1ccccc1)Nc1ccccc1` , please?
inactive

Quick one: Potency for `CCC(C)(C)C(=O)O[C@H]1C[C@@H](C)C=C2C=C[C@H](C)[C@H](CC[C@@H]3C[C@@H](O)CC(=O)O3)[C@H]21` ?
inactive

I would be grateful if you could share the reported Potency for `Cc1cccc(O)c1C` .
inactive

Suppose we examine the molecule `OCC(CO)N[C@H]1C[C@](O)(CO)[C@@H](O)[C@H](O)[C@H]1O` ; what Potency value has been reported?
inactive

Which measured Potency value corresponds to c1cc(C(c2ccc(OCC3CO3)cc2)C(c2ccc(OCC3CO3)cc2)c2ccc(OCC3CO3)cc2)ccc1OCC1CO1 (stereo unspecified) ?
inactive

###

test: qHTS assay to identify small molecule that activate the aryl hydrocarbon receptor (AhR) signaling pathway - cell viability counter screen (AID 743086); conditions: HepG2-AhR-luc viability, CellTiter-Fluor, 24 h; series mostly up to 70.3 µM;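 also: HepG2 liver cells carrying the AhR DRE luciferase reporter; nearly all actives have a fitted effect of over 45% in size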
Inconclusive results are not listed. Activity calls are given as the source filed them. The call rests on the fitted dose curve; in most records, active means well fitted cell-killing curve with a large enough effect in the repeat runs; inconclusive means weak or mixed curves, or effect the other way; inactive means flat fitted curve, though single readings scatter.
Lab note: assign the record to one of active, inactive

CCCCC(CC)COC(=O)CC(C(=O)OCC(CC)CCCC)S(=O)(=O)O (stereo not given) | inactive
C/C=C/c1ccc(OCC)c(O)c1 | inactive
CCC[C@H](N[C@@H](C)C(=O)N1[C@H](C(=O)O)C[C@@H]2CCCC[C@@H]21)C(=O)OCC | inactive
CC(=O)OCCOCCOCCOC(C)=O | inactive
O=Cc1ccc(Cl)cc1 | inactive
CC(C)(C)c1ccc(O)c(C(C)(C)C)c1 | inactive
Cc1ccc(-c2cc(C(F)(F)F)nn2-c2ccc(S(N)(=O)=O)cc2)cc1 | inactive
C=CS(=O)(=O)O | inactive

What did the test return for `Nc1nc2ccccc2[nH]1` ?
inactive

Hello, I am checking results. What call was entered for `CCn1c2ccccc2c2cc(N)ccc21` ?
inactive

For CCOC(=O)C(C)C(C)=O (stereo not given) , which call appears in the assay record?
inactive

Which outcome did this test record for the compound `COc1ccc(COC(C)=O)cc1` ?
inactive

State the result this test recorded for `O=Nc1ccc(Nc2ccccc2)cc1` .
inactive

Hello, I am checking results. What call was entered for `Oc1c(Cl)cc(Cl)c(Cl)c1Cc1c(O)c(Cl)cc(Cl)c1Cl` ?
inactive

What outcome does the record of this test show for `CC1=CC(=O)c2ccccc2C1=O` ?
inactive

# outcome recorded in this test, key = `NNCCc1ccccc1`
inactive

Can you look up the reported call for `C1COC(NC(C2CC2)C2CC2)=N1` for me?
inactive
